target: Akt3 (Homo sapiens); construct: endogenous in cells; experiment: Akt3 inhibition activity of selected compounds
Sequence (Q9Y243 whole entry): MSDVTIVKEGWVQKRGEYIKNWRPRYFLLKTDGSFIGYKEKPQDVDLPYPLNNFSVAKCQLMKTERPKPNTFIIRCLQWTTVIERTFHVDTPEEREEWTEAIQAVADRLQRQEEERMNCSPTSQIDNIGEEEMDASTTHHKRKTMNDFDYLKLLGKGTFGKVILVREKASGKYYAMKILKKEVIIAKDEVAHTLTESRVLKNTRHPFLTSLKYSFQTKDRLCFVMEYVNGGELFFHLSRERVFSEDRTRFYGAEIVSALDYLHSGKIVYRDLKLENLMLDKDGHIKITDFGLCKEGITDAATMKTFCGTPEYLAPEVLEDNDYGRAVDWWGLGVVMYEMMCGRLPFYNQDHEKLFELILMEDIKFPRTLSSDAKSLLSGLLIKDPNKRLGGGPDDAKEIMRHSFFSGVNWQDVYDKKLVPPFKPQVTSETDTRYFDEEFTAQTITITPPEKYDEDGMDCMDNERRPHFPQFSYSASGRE
MEASUREMENT_KIND: IC50

Cc1cnc2ccccc2c1Nc1ccc(C(=O)Nc2cccc(Oc3ccncc3)c2)cc1 [Compound 13] = < 5000 nM
Cc1c(Nc2cccc(NC(=O)c3ccc(Nc4ccncc4)cc3)c2)ccnc1N [Compound 92] = < 5000 nM
O=C(Nc1cccc(Nc2ccncc2)c1)c1ccc(Nc2ccnc3ccc(F)cc23)cc1 [Compound 2] = < 1000 nM

Ask: Report measured IC50; entry is Cc1cc(Nc2cccc(NC(=O)c3ccc(Nc4ccncc4)cc3)c2)ccn1 [Compound 22]
Reply: < 2000 nM

Ask: Report measured IC50; entry is O=C(Nc1cccc(Nc2ccncc2)c1)c1ccc(Nc2ccncc2)cc1 [Compound 10]
Reply: < 1000 nM

Ask: Report measured IC50; entry is Cc1cc(Nc2ccc(C(=O)Nc3cccc(Nc4ccnc(C)c4)c3)cc2)ccn1 [Compound 23]
Reply: < 2000 nM

Ask: Report measured IC50; entry is O=C(Nc1cc(Nc2ccncc2)ccn1)c1ccc(Nc2ccncc2)cc1 [Compound 24]
Reply: < 5000 nM

Ask: Report measured IC50; entry is Nc1cc(Nc2cccc(NC(=O)c3ccc(Nc4ccncc4)cc3)c2)ccn1 [Compound 93]
Reply: < 2000 nM

Ask: Report measured IC50; entry is Cc1cc(Nc2ccc(C(=O)Nc3cccc(Oc4ccncc4)c3)cc2)c2ccccc2n1 [Compound 15]
Reply: < 2000 nM

Ask: Report measured IC50; entry is Cc1ccc2c(Nc3ccc(C(=O)Nc4cccc(Oc5ccncc5)c4)cc3)ccnc2c1 [Compound 17]
Reply: < 5000 nM

Ask: Report measured IC50; entry is Cc1cc(Nc2cccc(NC(=O)c3ccc(Nc4ccncc4)cc3)c2)cc(N)n1 [Compound 94]
Reply: < 2000 nM

Ask: Report measured IC50; entry is O=C(Nc1cccc(Nc2ccnc(F)c2)c1)c1ccc(Nc2ccncc2)cc1 [Compound 31]
Reply: < 1000 nM

Ask: Report measured IC50; entry is Cc1cnc2ccccc2c1Nc1ccc(C(=O)Nc2cccc(Nc3ccncc3)c2)cc1 [Compound 14]
Reply: < 500 nM

Ask: Report measured IC50; entry is N#Cc1cc(Nc2cccc(NC(=O)c3ccc(Nc4ccncc4)cc3)c2)ccn1 [Compound 30]
Reply: < 5000 nM

Ask: Report measured IC50; entry is O=C(Nc1cccc(Nc2ccncc2)c1)c1ccc(Nc2ccnc3ccccc23)cc1 [Compound 5]
Reply: < 2000 nM
